# Tested system: T1, Recombinant Human DLL4 (R&D Systems Cat#1506-D4/CF) (human, UniProt Q9NR61 27-524)
# T1 construct: Bought recombinant human DLL4; also called delta-like protein 4; rHuman DLL4
# Assay comment: ELISA on coated DLL4, 100 nM Fab
Readout kind: ELISA Signal [100 nM Fab]
Give your answer as a number; write no unit.

The cases that follow already have their ELISA Signal [100 nM Fab] on record.
1) Fab VH5-51_IGHD5-18*01>3_IGHJ4*01 G100K/G104T (H:KT) & V3-4_IGLJ1*01 S96R (Fab, V domains shown, Fab format: CH1 with His6 and Flag tags, and lambda CL, from the vectors; also called G100K/G104T & S96R) VH: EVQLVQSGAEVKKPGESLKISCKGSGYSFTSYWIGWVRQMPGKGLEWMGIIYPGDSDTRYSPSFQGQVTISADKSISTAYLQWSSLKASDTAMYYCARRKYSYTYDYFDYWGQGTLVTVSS VL: QTVVTQEPSFSVSPGGTVTLTCGLSSGSVSTSYYPSWYQQTPGQAPRTLIYSTNTRSSGVPDRFSGSILGNKAALTITGAQADDESDYYCVLYMGRGISYVFGTGTKVTVL ... 0.02
2) Fab VH5-51_IGHD5-18*01>3_IGHJ4*01 G100K/G104T (H:KT) & V3-4_IGLJ1*01 S96M (Fab, V domains shown, Fab format: CH1 with His6 and Flag tags, and lambda CL, from the vectors; also called G100K/G104T & S96M) VH: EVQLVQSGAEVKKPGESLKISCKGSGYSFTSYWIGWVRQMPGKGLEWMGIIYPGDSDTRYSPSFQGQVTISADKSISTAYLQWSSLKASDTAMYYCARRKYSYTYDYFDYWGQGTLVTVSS VL: QTVVTQEPSFSVSPGGTVTLTCGLSSGSVSTSYYPSWYQQTPGQAPRTLIYSTNTRSSGVPDRFSGSILGNKAALTITGAQADDESDYYCVLYMGMGISYVFGTGTKVTVL ... 0.02
3) Fab VH5-51_IGHD5-18*01>3_IGHJ4*01 G100K/G104T (H:KT) & V3-4_IGLJ1*01 S96P (Fab, V domains shown, Tested as a Fab made in E. coli; The heavy chain vector (plasmid A) adds CH1 with His6 and Flag tags; the lambda light chain vector (plasmid E) adds CL; also called G100K/G104T & S96P) VH: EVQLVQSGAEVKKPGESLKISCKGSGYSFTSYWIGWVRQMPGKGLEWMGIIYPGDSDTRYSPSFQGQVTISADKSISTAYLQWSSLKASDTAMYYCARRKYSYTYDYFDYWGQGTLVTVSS VL: QTVVTQEPSFSVSPGGTVTLTCGLSSGSVSTSYYPSWYQQTPGQAPRTLIYSTNTRSSGVPDRFSGSILGNKAALTITGAQADDESDYYCVLYMGPGISYVFGTGTKVTVL ... 0.03

Here is the next item to consider.
So what does the record say about ELISA Signal [100 nM Fab] for Fab VH5-51_IGHD5-18*01>3_IGHJ4*01 G100K/G104T (H:KT) & V3-4_IGLJ1*01 S96L (Fab, V domains shown, Fab format: CH1 with His6 and Flag tags, and lambda CL, from the vectors; also called G100K/G104T & S96L) VH: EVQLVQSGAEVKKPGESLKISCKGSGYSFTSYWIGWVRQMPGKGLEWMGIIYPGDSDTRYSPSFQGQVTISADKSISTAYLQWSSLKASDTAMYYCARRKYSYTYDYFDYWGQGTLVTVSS VL: QTVVTQEPSFSVSPGGTVTLTCGLSSGSVSTSYYPSWYQQTPGQAPRTLIYSTNTRSSGVPDRFSGSILGNKAALTITGAQADDESDYYCVLYMGLGISYVFGTGTKVTVL ?
0.02
